Would you kindly list LD50 at 24 h for each of these compounds?
assay: Acute toxicity in the mouse; assay type: in vivo; conditions: in vivo, po, period of 24 hours
// return numeric value only (unit: mg/kg, not printed)

[in] For C#CCN1CCN(C2Cc3ccc(OC)cc3Sc3ccc(Cl)cc32)CC1.CS(=O)(=O)O.CS(=O)(=O)O (centres unmarked) , write its LD50 at 24 h.
[out] 750

[in] For C#CCN1CCN(C2Cc3ccc(OC)cc3Sc3ccc(SC)cc32)CC1.Cl.Cl (centres unmarked) , write its LD50 at 24 h.
[out] 900
